Would you kindly list growth inhibition for each of these compounds?
# test name: NCI Yeast Anticancer Drug Screen. Data for the mec2-1 strain (AID 157)
# settings: S. cerevisiae mec2-1 strain, at 3.7 µM, hits give high values
Compounds without any hit were thinned out: in the full panel of roughly 79,000, 15% have a hit.
Numbers only here, please. The scale is %.

Q. Reported growth inhibition, compound Oc1ccc2c(c1)C(O)CCCC2 (stereo not drawn) : ____
A. -1

Q. Also CCC(C)OC(=O)Nc1ccc(C)c(NC(=O)OC(C)CC)c1 (stereo not drawn) ?
A. 0

Q. Also Cc1nc(Nc2ccccc2[N+](=O)[O-])sc1C(=O)CC(=O)C(=O)Nc1c(C(C)C)cccc1C(C)C ?
A. 4

Q. Also NC(N)=NS(=O)(=O)c1ccc(Nc2c3ccccc3nc3c(C(=O)NCCO)cccc23)cc1 ?
A. 0

Q. Also Cc1cc(N(CCOS(C)(=O)=O)CCOS(C)(=O)=O)ccc1C=Nc1ccc(-c2csc(-c3ccccc3)n2)c(Cl)c1 ?
A. 30

Q. Also Cc1ccc(CC2(OCCN(C)C)CCC(C(C)(C)C)CC2)cc1 (stereo not drawn) ?
A. -11

Q. Also CC[N+]1(C)CCC(O)(c2ccc(OC)cc2)C(C(=O)c2ccc(OC)cc2)C1 (stereo not drawn) ?
A. -56

Q. Also CCN(CC)CCN(C)CCc1ccc(Br)cc1 ?
A. 17

Q. Also O=C1OC(OC/C(Br)=C(\Br)COC2OC(=O)C(Cl)=C2Cl)C(Cl)=C1Cl (stereo not drawn) ?
A. 2

Q. Also O=[N+]([O-])c1ccc(N/N=C/Cc2ccccc2)c([N+](=O)[O-])c1 ?
A. -1

Q. Also CCCCCCCCCCCCCCCCOP(=O)(O)OCC(N)C(=O)O (stereo not drawn) ?
A. 3

Q. Also COc1cc(/C=C2\CCC/C(=C\c3ccc(O)c(OC)c3)C2=O)ccc1O ?
A. 0

Q. Also CCCCOC(=O)Nc1ccc(C)c(NC(=O)OCCCC)c1 ?
A. -11

Q. Also Cc1cc(C(C)(C)CC(C)(C)C)ccc1O ?
A. -58

Q. Also CCOc1ccccc1N=Cc1c2ccccc2cc2ccccc12 ?
A. 33

Q. Also O=C(NCCCNCCN1C(=O)c2cccc3cc([N+](=O)[O-])cc(c23)C1=O)c1cc(-c2ccccc2)nc2ccccc12 ?
A. -1

Q. Also Oc1ccc(SCc2ccc(NCc3ccccc3)cc2)cc1 ?
A. 1

Q. Also Nc1ccn(C2OC(COP(=O)(O)O)C(O)C2O)c(=O)n1 (stereo not drawn) ?
A. 5

Q. Also CCCCc1nnc(NS(=O)(=O)c2ccc(C)cc2)s1 ?
A. -19

Q. Also O=[N+]([O-])c1cc(S(=O)(=O)Nc2ccccc2)ccc1Nc1ccccc1 ?
A. 19

Q. Also O=c1ssc(=Nc2ccccc2)n1-c1ccccc1 ?
A. -3

Q. Also CCOC(=O)C#Cc1ccc([N+](=O)[O-])cc1 ?
A. -5

Q. Also Cc1ccc2c(c1)C1(SC(C)C(=O)N1c1ccc(Cl)cc1)C(=O)N2 (stereo not drawn) ?
A. 5

###

# test name: NCI Yeast Anticancer Drug Screen. Data for the mlh1 rad18 strain (AID 175)
# settings: S. cerevisiae mlh1 rad18 strain growth inhibition; at 50.0 µM (retest, dose inferred, filed as 5.0)
Compounds without any hit were thinned out: in the full panel of roughly 79,000, 15% have a hit. Activity calls are given as the source filed them. Rule as the data show it: active = growth inhibition above about 70%; inactive = the rest.
Pick one and only one: active, inactive

Q. Could you kindly confirm the outcome this assay logged for Nc1ccc(F)cc1S ?
A. active

Q. Also COc1cc([C@@H]2c3cc4c(cc3[C@H](OC3OC5COC(C(C)C)OC5C(O)C3O)C3COC(=O)[C@@H]32)OCO4)cc(OC)c1O (some centres not stated) ?
A. inactive

Q. Also CCCCCCSc1ncnc2[nH]ncc12 ?
A. inactive

Q. Also C=C1C(=O)OC2CC1C(OC(C)=O)C/C(C)=C/CC/C(C)=C\CCC2(C)O (configuration not stated) ?
A. active

Q. Also Cn1c(-c2ccc(/C=N\N3CCN(/N=C/c4ccc(-c5c[n+]6ccccc6n5C)cc4)CC3)cc2)c[n+]2ccccc12 ?
A. active

Q. Also CC(C)OC(=O)c1ccc(CCc2cc(O)c(Br)cc2O)cc1 ?
A. active

Q. Also c1ccc(CCN2CCc3ccccc3C2)cc1 ?
A. active

Q. Also CN(C)CCNC(=O)c1cccc2cc([N+](=O)[O-])ccc12 ?
A. active

Q. Also CCCCc1nnc(NS(=O)(=O)c2ccc(C)cc2)s1 ?
A. active

Q. Also CCc1c[n+]([O-])c(C)cc1[N+](=O)[O-] ?
A. active

Q. Also CCCCOP(=O)(CCCP(=O)(OCCCC)OCCCC)OCCCC ?
A. inactive

Q. Also O=[N+]([O-])c1cc(S(=O)(=O)Nc2ccccc2)ccc1Nc1ccccc1 ?
A. active

Q. Also CCc1c(Cl)c(C)cc(O)c1Cl ?
A. active

Q. Also CCCCCCOC(=O)NCCOC(=O)Nc1ccccc1 ?
A. inactive

Q. Also COc1nc2c(c(=O)n1C)N=C(c1ccccc1)[C@H](C(CC(=O)c1ccccc1)c1ccccc1)C(c1ccccc1)N2 (some centres not stated) ?
A. inactive

Q. Also N=C1N=Nc2nc(C3(c4nc5n(c4O)C(=N)N=N5)Cc4ccccc4C3=O)c(O)n21 (configuration not stated) ?
A. inactive

Q. Also CC1(C)CC(=O)C(/C=N/c2nc(-c3ccccc3)cs2)=C(O)C1 ?
A. active

Q. Also Cc1c2cc[n+](Cc3ccc(I)cc3)cc2c(C)c2c1[nH]c1ccccc12 ?
A. active

Q. Also Cc1ccc([N+]2=NC(c3ccccc3)=NN(c3ccccc3)C2)cc1 ?
A. inactive

Q. Also CC(C)(C)c1ccc(NS(=O)(=O)c2ccc(N)cc2)cc1 ?
A. inactive

Q. Also COc1cc(/C=N/Nc2nnc3c4ccccc4c4ncccc4c3n2)cc(OC)c1OC ?
A. inactive

Q. Also C=C(C(=C)n1nnc(C(=O)OC)c1C(=O)OC)n1nnc(C(=O)OC)c1C(=O)OC ?
A. inactive

This collection of values is drawn from PubChem BioAssay (NCI).
